Molecular target: rat 5HT2C receptor (Rattus norvegicus, UniProt P08909)
Construct: expressed in transfected cells
Sequence (P08909 33-460): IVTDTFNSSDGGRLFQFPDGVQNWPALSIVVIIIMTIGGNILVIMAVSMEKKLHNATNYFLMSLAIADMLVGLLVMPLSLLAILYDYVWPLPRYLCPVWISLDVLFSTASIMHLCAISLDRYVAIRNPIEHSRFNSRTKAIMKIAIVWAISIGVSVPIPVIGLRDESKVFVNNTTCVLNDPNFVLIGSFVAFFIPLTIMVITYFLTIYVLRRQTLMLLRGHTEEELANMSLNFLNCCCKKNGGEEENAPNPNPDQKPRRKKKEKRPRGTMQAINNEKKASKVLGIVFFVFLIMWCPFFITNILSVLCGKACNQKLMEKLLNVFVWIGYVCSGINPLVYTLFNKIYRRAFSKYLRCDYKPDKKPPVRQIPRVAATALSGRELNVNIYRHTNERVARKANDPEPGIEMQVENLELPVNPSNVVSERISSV
Experiment: Radioligand binding, 5HT2C receptor
Conditions: read-out: r5HT2C Ki; Table 7
TEST_READOUT: pKi
# pKi is unitless: minus log10 of the molar concentration; print number only

Input line: Value wanted: pKi (rat 5HT2C receptor (Rattus norvegicus, UniProt P08909)) of entry `COC[C@@H]1[C@@H](c2ccccc2)OCCN1c1nc(Nc2ccc(C)cc2)cc(N2CCCCC2)n1`
Output line: 5.17

###

Target: human 5HT1D (Homo sapiens, UniProt P28221)
Construct: expressed in transfected cells
Sequence (P28221 whole entry): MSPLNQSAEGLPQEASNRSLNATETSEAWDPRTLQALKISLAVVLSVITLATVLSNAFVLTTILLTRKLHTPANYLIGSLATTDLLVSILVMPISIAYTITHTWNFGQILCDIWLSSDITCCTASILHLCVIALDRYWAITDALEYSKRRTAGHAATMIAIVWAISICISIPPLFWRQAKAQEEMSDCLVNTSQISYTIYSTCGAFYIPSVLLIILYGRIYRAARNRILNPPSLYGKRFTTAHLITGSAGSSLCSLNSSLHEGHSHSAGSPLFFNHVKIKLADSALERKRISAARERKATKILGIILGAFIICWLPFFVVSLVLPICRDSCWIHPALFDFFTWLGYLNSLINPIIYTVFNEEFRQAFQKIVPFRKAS
Assay: Radioligand binding, 5HT1D receptor ([3H]-serotonin)
Details: Table 7; read-out: h5HT1D Ki
TEST_READOUT: Ki (µM)
Write the number in µM without appending the unit.

Input line: Query (compound): COc1cccc(Nc2cc(N3CCCCC3)nc(N(C)CCc3c[nH]c4ccccc34)n2)c1 [Example 17] ; field requested: Ki
Output line: 1.03

Input line: CN(C)c1cc(Nc2ccc(Cl)c(Cl)c2)nc(Nc2ccccc2)n1 [Example 60] ?
Output line: 9.2

Input line: Cc1ccc(Nc2cc(N(C)C)nc(N(C)CCc3c[nH]c4ccccc34)n2)cc1 [Example 77] ?
Output line: 0.716

Input line: Cc1ccc(Nc2cc(N3CCCCC3)nc(N3CCN(c4ncccc4C(F)(F)F)CC3)n2)cc1 [Example 34] ?
Output line: 2.98
